# Tested on: OVCAR-4 ovarian
# Assay Info: NCI-60 one-dose screen, 48 h
# Test Settings: 10 µM unless noted
Compounds without any hit were thinned out: in the full panel of roughly 83,000, 20% have a hit. The source made the active and inactive calls. The calls were made as follows: active = growth percent below 10; inactive = the rest.
Mark one answer only. Choices: class 1 (active), class 0 (inactive)

Cc1nc2c(c(=O)[nH]1)C(c1ccccc1)c1ccc3ccccc3c1O2 (stereo not given) | class 0
Cc1ccc(CNc2c3ccccc3nc3ccccc23)cc1 | class 0

Returns: the outcome recorded for `COc1cnc2c(c1)C(=O)c1c-2n(CCCCl)c(=O)c2ccncc12` in this assay.
class 0

# lookup: test call for COc1ccc(CCN2C(=O)/C(=C/c3ccc(C4Oc5ccccc5C5CC(c6ccccc6)=NN54)cc3)SC2=S)cc1 (stereo not given)
class 0

Call for entry `COc1ccc(Cn2cc(C(=O)N=Nc3c(O)[nH]c4c(C)cccc34)nn2)cc1` :
class 1
